Test: Inhibition of wild type HIV reverse transcriptase in presence of poly(rA) 300 template, (dT) 16 primer
Set-up: species or system Human immunodeficiency virus
OBSERVATION_TYPE: IC50 (µM)

Some solved cases for reference:
[
  {
    "CPD_SMILES": "CCc1nn(CCO)c(CC)c1Oc1cccc(F)c1F",
    "REPORTED_VALUE": 2.6
  },
  {
    "CPD_SMILES": "CCc1nn(CCO)c(NC(=O)COC)c1Cc1cc(Cl)cc(Cl)c1",
    "REPORTED_VALUE": 55
  },
  {
    "CPD_SMILES": "Cc1nn(CCO)c(C)c1S(=O)(=O)c1cc(Cl)cc(Cl)c1",
    "REPORTED_VALUE": 15
  },
  {
    "CPD_SMILES": "CCc1nn(CCO)c(CC)c1Oc1ccc(F)c(C)c1",
    "REPORTED_VALUE": 24
  }
]

1 = CCc1nn(CCO)c(CC)c1Oc1cc(C)cc(C)c1
2 = CCc1nn(CCO)c(CC)c1Oc1c(C)cc(C#N)cc1C
// query Given 1 and given 2 , which shows the smaller recorded IC50? Use the label to indicate which entry you chose.
// result 1
(1: 0.51 µM, 2: 3.2 µM)
